System: Streptococcus pneumoniae
Experiment: Antibacterial activity against Streptococcus pneumoniae harboring mutation in 23S rRNA after overnight incubation by agar dilution method
Assay type: functional
Here, each record is paired with measured MIC data.
Express the result in µg/mL but write the number alone.

Recorded results for 4 compounds are shown here.
| compound | testedTarget | MIC (µg/mL) |
| --- | --- | --- |
| CCC[C@@H]1C[C@@H](C(=O)N[C@@H]([C@H]2O[C@H](SC)[C@H](O)[C@@H](O)[C@H]2O)[C@H](C)Cl)N(C)C1 [CLINDAMYCIN] | Streptococcus pneumoniae | 0.03 |
| CC[C@H]1OC(=O)[C@H](C)[C@@H](O[C@H]2C[C@@](C)(OC)[C@@H](O)[C@H](C)O2)[C@H](C)[C@@H](O[C@@H]2O[C@H](C)C[C@H](N(C)C)[C@H]2O)[C@](C)(O)C[C@@H](C)C(=O)[C@H](C)[C@@H](O)[C@]1(C)O [ERYTHROMYCIN] | Streptococcus pneumoniae | 8 |
| COc1c(N2C[C@@H]3CCCN[C@@H]3C2)c(F)cc2c(=O)c(C(=O)O)cn(C3CC3)c12 [MOXIFLOXACIN] | Streptococcus pneumoniae | 0.25 |
| CC1(C)S[C@@H]2[C@H](NC(=O)Cc3ccccc3)C(=O)N2[C@H]1C(=O)O [PENICILLIN G] | Streptococcus pneumoniae | 0.015 |

Now take the following compound into account.
Value of measured MIC for the entry CC[C@H]1OC(=O)[C@@](C)(F)C(=O)[C@H](C)[C@@H](O[C@@H]2O[C@H](C)C[C@H](N(C)C)[C@H]2O)[C@](C)(OC)C[C@@H](C)C(=O)[C@H](C)[C@H]2N(CCCCn3cc(-c4cccc(N)c4)nn3)C(=O)O[C@]12C [SOLITHROMYCIN] : 0.002

====

System: Streptococcus pyogenes
Assay: Antibacterial activity against macrolide-resistant Streptococcus pyogenes 2011 harboring mef(A) gene after 35 passages and 10 compound-free subculturing by retest method
assayMetric: MIC (µg/mL)
Just the number in µg/mL, nothing appended.

| structure | MIC, µg/mL |
| --- | --- |
| CC[C@H]1OC(=O)[C@H](C)[C@@H](O[C@H]2C[C@@](C)(OC)[C@@H](O)[C@H](C)O2)[C@H](C)[C@@H](O[C@@H]2O[C@H](C)C[C@H](N(C)C)[C@H]2O)[C@](C)(O)C[C@@H](C)CN(C)[C@H](C)[C@@H](O)[C@]1(C)O | 16 |

For this compound ( CCC[C@@H]1C[C@@H](C(=O)N[C@@H]([C@H]2O[C@H](SC)[C@H](O)[C@@H](O)[C@H]2O)[C@H](C)Cl)N(C)C1 ), measured MIC is 0.06

Query CC[C@H]1OC(=O)[C@@](C)(F)C(=O)[C@H](C)[C@@H](O[C@@H]2O[C@H](C)C[C@H](N(C)C)[C@H]2O)[C@](C)(OC)C[C@@H](C)C(=O)[C@H](C)[C@H]2N(CCCCn3cc(-c4cccc(N)c4)nn3)C(=O)O[C@]12C yields MIC of 0.06

====

System: Streptococcus pneumoniae
Experiment: Antibacterial activity against macrolide-resistant Streptococcus pneumoniae 24 harboring erm(B) gene after overnight incubation by agar dilution method
Assay type: functional
Measured MIC values are reported for all entries that follow.

get_value(item= CCC[C@@H]1C[C@@H](C(=O)N[C@@H]([C@H]2O[C@H](SC)[C@H](O)[C@@H](O)[C@H]2O)[C@H](C)Cl)N(C)C1 [CLINDAMYCIN] , readout=MIC) returns > 64 µg/mL

Short answer for CC[C@H]1OC(=O)[C@H](C)[C@@H](O[C@H]2C[C@@](C)(OC)[C@@H](O)[C@H](C)O2)[C@H](C)[C@@H](O[C@@H]2O[C@H](C)C[C@H](N(C)C)[C@H]2O)[C@](C)(O)C[C@@H](C)CN(C)[C@H](C)[C@@H](O)[C@]1(C)O [AZITHROMYCIN] : MIC was > 64 µg/mL

For record CC[C@H]1OC(=O)[C@H](C)[C@@H](O[C@H]2C[C@@](C)(OC)[C@@H](O)[C@H](C)O2)[C@H](C)[C@@H](O[C@@H]2O[C@H](C)C[C@H](N(C)C)[C@H]2O)[C@](C)(OC)C[C@@H](C)C(=O)[C@H](C)[C@@H](O)[C@]1(C)O [CLARITHROMYCIN] the listed MIC is > 64 µg/mL
